Reference source: patent EP4582447A1

TEST SYSTEM: T1, Human VEGFA165 (human, UniProt P15692-4 27-191)
T1 construct: treated as the same molecule; also called antigen VEGFA
T1 sequence (P15692 other isoform, or with tags, fused parts or gaps limits assumed): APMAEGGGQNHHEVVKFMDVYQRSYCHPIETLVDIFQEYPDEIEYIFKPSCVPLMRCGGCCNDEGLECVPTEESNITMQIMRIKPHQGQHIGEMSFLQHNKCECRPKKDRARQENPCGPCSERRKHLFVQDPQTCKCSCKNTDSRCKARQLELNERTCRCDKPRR
TEST NAME: SPR Biacore 8K, VEGFA165 amine-coupled on CM5, nanobody as analyte, 1:1 model
REPORTED METRIC: koff (s⁻¹)
Please state the figure in s⁻¹; there is no need to write the unit.

Given the entry V29 (VHH, Purified with C-terminal GGGGS-6×His) VHH: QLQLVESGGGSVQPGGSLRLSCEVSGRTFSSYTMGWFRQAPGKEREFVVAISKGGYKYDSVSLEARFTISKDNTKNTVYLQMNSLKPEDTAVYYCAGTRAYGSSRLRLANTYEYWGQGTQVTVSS , report its measured koff. 0.000127

Given the entry V30 (VHH, Purified with C-terminal GGGGS-6×His; also called candidate antibody V30) VHH: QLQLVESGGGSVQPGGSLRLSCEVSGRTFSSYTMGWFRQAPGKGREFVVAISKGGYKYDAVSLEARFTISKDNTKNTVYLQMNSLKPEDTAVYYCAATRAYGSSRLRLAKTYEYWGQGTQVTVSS , report its measured koff. 0.000136

Given the entry V36 (VHH, Purified with C-terminal GGGGS-6×His) VHH: QLQLVESGGGSVQPGGSLRLSCEVSGRTFASYTMGWFRQAPGKEREFVVAISKGGYKYDSVSLEARFTISKDNTKNTVYLQMNSLKPEDTAVYYCAGTRAYGSSRLRLADTYEYWGQGTQVTVSS , report its measured koff. 0.00012

Given the entry V1 (VHH, also called candidate antibody V1; antibody V1) VHH: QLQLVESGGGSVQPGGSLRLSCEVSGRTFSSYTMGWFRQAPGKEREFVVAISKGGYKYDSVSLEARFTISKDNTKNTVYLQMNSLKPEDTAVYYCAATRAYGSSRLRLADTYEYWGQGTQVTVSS , report its measured koff. 0.000101

Given the entry V33 (VHH, Purified with C-terminal GGGGS-6×His) VHH: QLQLVESGGGSVQPGGSLRLSCEVSGRTFSSYTMGWFRQAPGKEREFVVAISKGGYKYDSVSLEARFTISKDNTKNTVYLQMNSLKPEDTAVYYCAATRAYGSSRLRLAKTYEYWGQGTQVTVSS , report its measured koff. 0.000168

Given the entry V41 (VHH, Purified with C-terminal GGGGS-6×His) VHH: QLQLVESGGGSVQPGGSLRLSCEVSGRTFSSYTMGWFRQAPGKEREFVVAISKGGYKYDSVSLEARFTISKDNTKNTVYLQMNSLKPEDTAVYYCAGTRAYGSSRLRLAKTYEYWGQGTQVTVSS , report its measured koff. 0.00016

Given the entry V43 (VHH, Purified with C-terminal GGGGS-6×His) VHH: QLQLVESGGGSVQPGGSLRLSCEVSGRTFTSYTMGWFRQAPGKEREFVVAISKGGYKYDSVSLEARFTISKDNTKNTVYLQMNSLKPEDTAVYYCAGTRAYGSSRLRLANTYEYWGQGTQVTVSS , report its measured koff. 8.09e-05
